- TEST TARGET: T1, transferrin (UniProt P02787 20-698, randomly labelled at free amines with Alexa 555 in the peptide array screen; amine-coupled to the chip in SPR)
- T1 construct: also called TRF
- T1 sequence (P02787 20-698 limits assumed): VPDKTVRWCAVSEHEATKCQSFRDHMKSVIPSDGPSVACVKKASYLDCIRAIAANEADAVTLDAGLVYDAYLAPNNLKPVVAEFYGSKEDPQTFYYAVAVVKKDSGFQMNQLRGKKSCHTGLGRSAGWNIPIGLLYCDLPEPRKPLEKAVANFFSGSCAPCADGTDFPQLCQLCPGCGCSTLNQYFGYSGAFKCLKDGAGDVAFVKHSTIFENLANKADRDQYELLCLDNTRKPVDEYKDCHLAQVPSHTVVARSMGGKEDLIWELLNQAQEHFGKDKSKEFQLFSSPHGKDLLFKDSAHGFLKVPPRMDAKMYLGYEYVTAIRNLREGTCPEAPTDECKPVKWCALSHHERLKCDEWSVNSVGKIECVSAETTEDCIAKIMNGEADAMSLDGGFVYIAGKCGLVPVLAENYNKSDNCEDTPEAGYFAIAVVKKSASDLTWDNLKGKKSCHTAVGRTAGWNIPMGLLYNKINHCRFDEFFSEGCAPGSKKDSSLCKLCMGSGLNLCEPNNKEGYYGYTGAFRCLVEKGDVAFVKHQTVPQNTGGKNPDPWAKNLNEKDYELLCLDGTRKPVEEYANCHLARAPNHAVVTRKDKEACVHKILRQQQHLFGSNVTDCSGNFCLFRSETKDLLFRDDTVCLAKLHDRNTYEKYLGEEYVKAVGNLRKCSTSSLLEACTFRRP
- EXPERIMENT SUMMARY: SPR (Biacore T100), transferrin immobilized, steady-state response
pKd: −log10 of the molar value.
Each record here notes measured pKd.

Sample answers from the record:
{"BINDER": "SVKPWRPLLTGNRWLNSGSC [TRF24]", "pKd": "~4.30"}
{"BINDER": "APYAPQQIHYWSTLGFKGSC (20-mer random peptide) [TRF25]", "pKd": "~4.22"}
{"BINDER": "FRGWAHIFFGPHVIYRGGSC (20-mer random peptide) [TRF23]", "pKd": "~4.30"}
{"BINDER": "KEDNPGYSSEQDYNKLDGSC (20-mer random peptide; on the array it is attached by its C-terminal cysteine to the surface) [TRF19]", "pKd": "~3.82"}
{"BINDER": "QYHHFMNLKRQGRAQAYGSC (20-mer random peptide) [TRF21]", "pKd": "~4.22"}

Here's the next entry for you.
Request: Name the recorded pKd of the binder listed here: AHKVVPQRQIRHAYNRYGSC (20-mer random peptide) [TRF26]
Result: ~4.00
